// data source = ChEMBL document CHEMBL1137437

RUN_DESCRIPTION: Bioavailability in dog at 1.8 mg/kg, po
Assay type: ADME, organism-based, Canis lupus familiaris
TEST_PARAMETERS: in vivo
MEASURED_METRIC: bioavailability (%)
Reply with just the number (in %).

I would be grateful if you could share the reported bioavailability for C[C@H]1CN(c2ccc(C(=O)Nc3ccccc3N)cn2)CCN1C(=O)OCc1ccccc1 .
73
